Tested on: corn (Zea mays)
protocol details: Test B pre/postemergence
Format: in vivo
applied conditions: Zea mays, post-emergence, Postemergence, 500 g ai/ha; scale 0 to 100
recorded metric: Corn plant response rating (crop injury, 0 = no effect, 100 = complete kill) at 500 g/ha (%)
Give just the numeric value; % need not be written.

Kindly note the recorded Corn plant response rating (crop injury, 0 = no effect, 100 = complete kill) at 500 g/ha for Nc1nc(C2CC2)nc(C=O)c1Br , which is 20

Kindly note the recorded Corn plant response rating (crop injury, 0 = no effect, 100 = complete kill) at 500 g/ha for CCOC(=O)c1nc(C2CC2)nc(NN)c1Br , which is 0

Kindly note the recorded Corn plant response rating (crop injury, 0 = no effect, 100 = complete kill) at 500 g/ha for CCOC(=O)c1nc(C(C)(C)C)nc(N)c1Br , which is 0

Kindly note the recorded Corn plant response rating (crop injury, 0 = no effect, 100 = complete kill) at 500 g/ha for COC(=O)c1nc(C(C)C)nc(N)c1Br , which is 0

Kindly note the recorded Corn plant response rating (crop injury, 0 = no effect, 100 = complete kill) at 500 g/ha for COC(=O)c1nc(-c2ccccc2)nc(N)c1Br , which is 0

Kindly note the recorded Corn plant response rating (crop injury, 0 = no effect, 100 = complete kill) at 500 g/ha for CCOC(=O)c1nc(C2CC2)nc(N)c1F , which is 30

###

Tested on: Surinam grass (Brachiaria decumbens)
protocol details: Test C pre/postemergence
Type: in vivo
applied conditions: Urochloa decumbens, post-emergence; Postemergence, 250 g ai/ha; scale 0 to 100; read-out: Plant response rating, Surinam Grass
Could you please report measured pest or weed control at 250 g/ha for the items listed next?
Give just the numeric value; % need not be written.

Kindly note the recorded pest or weed control at 250 g/ha for COC(=O)c1nc(C(C)C)nc(N)c1Br , which is 0

Kindly note the recorded pest or weed control at 250 g/ha for CCOC(=O)c1nc(C2CC2)nc(NN)c1Br , which is 0

Kindly note the recorded pest or weed control at 250 g/ha for COC(=O)c1nc(C2CC2)nc(N)c1Cl , which is 80

Kindly note the recorded pest or weed control at 250 g/ha for CNc1nc(C2CC2)nc(C(=O)OC)c1Br , which is 30

###

Could you please report measured pest or weed control at 31 g/ha for the items listed next?
System: Surinam grass (Brachiaria decumbens)
protocol details: Test C pre/postemergence
Type: in vivo
applied conditions: Urochloa decumbens, post-emergence; Postemergence, 31 g ai/ha; read-out: Plant response rating (scale of 0 to 100), Surinam Grass
Description: […]
Give just the numeric value; % need not be written.

Kindly note the recorded pest or weed control at 31 g/ha for CCOC(=O)c1nc(C2CC2)nc(N)c1F , which is 0

Kindly note the recorded pest or weed control at 31 g/ha for COC(=O)c1nc(C2CC2)nc(N)c1F , which is 0

Kindly note the recorded pest or weed control at 31 g/ha for COC(=O)c1nc(C2CC2)nc(N)c1Br , which is 0

Kindly note the recorded pest or weed control at 31 g/ha for COC(=O)c1nc(C2CC2)nc(N)c1Cl , which is 45

###

Tested on: cocklebur (Xanthium strumarium)
protocol details: Test C pre/postemergence
Type: in vivo
applied conditions: Postemergence, 62 g ai/ha; scale 0 to 100 (0 no effect, 100 complete control)
Could you please report measured Cocklebur plant response rating for the items listed next?
Field format: numeric only.

Kindly note the recorded Cocklebur plant response rating for COC(=O)c1nc(C2CC2C)nc(N)c1Br (stereo not shown) , which is 85

Kindly note the recorded Cocklebur plant response rating for CC(=O)NN=Cc1nc(C2CC2)nc(N)c1Br , which is 65

Kindly note the recorded Cocklebur plant response rating for COC(=O)c1nc(C2CC2)nc(N=CN(C)C)c1Br , which is 50

Kindly note the recorded Cocklebur plant response rating for CNN=Cc1nc(C2CC2)nc(N)c1Br , which is 75
